B1: 5KPH (parent)
chain: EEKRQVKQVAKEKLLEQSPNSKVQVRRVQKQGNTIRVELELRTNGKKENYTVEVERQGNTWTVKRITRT

- Variants of: B1
- testSummary: folding stability dG (cDNA display proteolysis); higher = more stable
- conditionsUsed: PBS, room temperature
Below: a set of entries, each annotated with reported folding stability dG.
Answer in kcal/mol, number only, no unit symbol.

- biosequence: "EEKRQVKQVAKEKLLEQIPNSKVQVRRVQKQGNTIRVELELRTNGKKENYTVEVERQGNTWTVKRITRT [S18I]"
  reportedMetric: "folding stability dG"
  quantityUnit: "kcal/mol"
  quantitativeResult: 3.93
- biosequence: "EEKRQVKQVAKEKLLEQSPNSKVQVRRVQKQGNTIHVELELRTNGKKENYTVEVERQGNTWTVKRITRT [R36H]"
  reportedMetric: "folding stability dG"
  quantityUnit: "kcal/mol"
  quantitativeResult: 4.04
- biosequence: "EEKRQVKQVAKEKLLEQSPNSKVQVRRVQKQGNTIRVELELRTEGKKENYTVEVERQGNTWTVKRITRT [N44E]"
  reportedMetric: "folding stability dG"
  quantityUnit: "kcal/mol"
  quantitativeResult: 4.02
- biosequence: "EEKRQVKQVAKEKLLEQSPNSKVQVRRVQKQGNTIRVELELRTNGKKENYTVEVERQGNHWTVKRITRT [T60H]"
  reportedMetric: "folding stability dG"
  quantityUnit: "kcal/mol"
  quantitativeResult: 4.02
- biosequence: "EEKRQVKQVAKEKLLEQSPNSKVQVRRVQKQGNTIRVELELRTNGHKENYTVEVERQGNTWTVKRITRT [K46H]"
  reportedMetric: "folding stability dG"
  quantityUnit: "kcal/mol"
  quantitativeResult: 3.9
- biosequence: "EEKRQVKQVAKEKLLERSPNSKVQVRRVQKQGNTIRVELELRTNGKKENYTVEVERQGNTWTVKRITRT [Q17R]"
  reportedMetric: "folding stability dG"
  quantityUnit: "kcal/mol"
  quantitativeResult: 3.92
- biosequence: "EEKRQVKQVAKEKLLEQSPNSKVQVRRVQKQGNTIRVELELRTNGKKENYTVEVERQGNTWTVKRITRI [T69I]"
  reportedMetric: "folding stability dG"
  quantityUnit: "kcal/mol"
  quantitativeResult: 3.99
- biosequence: "EEKRQVKQVAKEKLLEQSPNSKVQVRRVQKQGNTIRVILELRTNGKKENYTVEVERQGNTWTVKRITRT [E38I]"
  reportedMetric: "folding stability dG"
  quantityUnit: "kcal/mol"
  quantitativeResult: 4.1
- biosequence: "EEKRQVKQVAKEKLLEQSPNSKVQVRRVQKQGNTIRVELELRTNGKKENYTVEVERQGNTWTVKRIMRT [T67M]"
  reportedMetric: "folding stability dG"
  quantityUnit: "kcal/mol"
  quantitativeResult: 3.98
- biosequence: "EEKRQVKQVAKEKLLEQSPNSIVQVRRVQKQGNTIRVELELRTNGKKENYTVEVERQGNTWTVKRITRT [K22I]"
  reportedMetric: "folding stability dG"
  quantityUnit: "kcal/mol"
  quantitativeResult: 4.01

Task item: What folding stability dG value was documented for this variant, EEKRQVKQVAKEKLLEQSPNSKVQVTRVQKQGNTIRVELELRTNGKKENYTVEVERQGNTWTVKRITRT [R26T] ?
Reply: 3.92
